- system tested: CYP2D6 (Homo sapiens)
- Construct: a human liver microsome solution containing three CYP-specific substrates; from tissue; host or cells: human liver microsomes
- Sequence (P10635 whole entry): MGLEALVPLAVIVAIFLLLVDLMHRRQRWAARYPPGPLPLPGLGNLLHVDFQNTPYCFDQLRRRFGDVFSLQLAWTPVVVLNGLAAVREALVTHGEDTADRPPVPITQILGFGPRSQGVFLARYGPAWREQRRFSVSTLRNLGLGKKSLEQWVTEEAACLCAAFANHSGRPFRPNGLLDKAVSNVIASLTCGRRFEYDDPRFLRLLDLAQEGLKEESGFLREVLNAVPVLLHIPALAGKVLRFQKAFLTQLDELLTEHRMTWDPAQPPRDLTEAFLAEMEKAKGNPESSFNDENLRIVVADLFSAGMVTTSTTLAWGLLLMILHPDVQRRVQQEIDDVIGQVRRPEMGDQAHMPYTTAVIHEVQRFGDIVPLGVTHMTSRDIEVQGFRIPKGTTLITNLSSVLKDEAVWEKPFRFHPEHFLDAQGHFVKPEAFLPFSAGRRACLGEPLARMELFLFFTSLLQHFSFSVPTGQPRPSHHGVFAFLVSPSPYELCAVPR
- experiment summary: CYP inhibition test (1): inhibition rate (%) at one concentration, CYP2D6
- Type: in vitro ADME
- run parameters: human liver microsomes, pH 7.4, probe bufuralol (0.01 mmol/L); test compound 0.01 mmol/L, human liver microsome 0.1 mg/mL, substrate bufuralol, 37° C. 10 minutes; read-out: inhibition rate (%) 2D6
Overview of reported inhibition at 10 min, 0.01 mmol/L across a group of compounds:
# output: bare number, implied unit %

// below: answered compounds
{"columns": ["smiles representation", "system tested", "inhibition at 10 min, 0.01 mmol/L / %"],
 "data": [
  ["CC1(C)CN(c2ccc(OC(F)(F)CO)c(F)c2F)[C@H]2CCCC[C@H]2N1", "CYP2D6 (Homo sapiens)", 21.5],
  ["C[C@@H]1CN(c2ccc(OC(F)(F)CO)c(Cl)c2)[C@H]2CCCC[C@@H]2N1", "CYP2D6 (Homo sapiens)", 5.9],
  ["CC1(C)CN(c2ccc(OCCO)c3occc23)[C@H]2CCCC[C@H]2N1", "CYP2D6 (Homo sapiens)", 17]
]}

Query: I am curious: what inhibition at 10 min, 0.01 mmol/L value has been reported for CC1(C)CN(c2ccc(OCCO)cc2Cl)[C@H]2CCCC[C@H]2N1 ?
Response: 21.6

Query: What would you report for CC1(C)CN(c2cc(F)c(OC(F)(F)CO)cc2F)[C@H]2CCCC[C@H]2N1 ?
Response: 28.8

Query: What would you report for CC1(C)CN(c2ccc(OCCO)c(Br)c2F)[C@H]2CCCC[C@H]2N1 ?
Response: 19.2

Query: What would you report for COc1cc(N2CC3(CCC3)N[C@H]3CCCC[C@@H]32)ccc1OCCO ?
Response: 14.2

Query: What would you report for Cc1cc(N2CC(C)(C)N[C@@H]3CCCC[C@@H]32)cc(F)c1OC(F)(F)CO ?
Response: 16.1
